Reference for the values: patent US20190225692A1

Examples of binders with documented % cells in E7 tet+/CD8- quadrant follow.
system-name: T1, HLA-A2/E7 (11-19) tetramer (human; HPV 16)
T1 construct: also called E7(11-19) peptide-MHC tetramer; E7 (11-19)-loaded tetramer
method-summary: tetramer flow cytometry; transfected 1:1 CD4+ and CD4+/CD8+ Jurkat-derived cells;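 also: cells transiently transfected with TCR plasmids, stained 48 h later with HLA-A*02:01 peptide-MHC tetramer plus anti-CD8 antibody, read by flow cytometry to assess CD8-independent tetramer binding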

binder: TCR 51 (codon optimized, cysteine modified version) (TCR, V domains shown) V domain 1: QKEVEQNSGPLSVPEGAIASLNCTYSDRGSQSFFWYRQYSGKSPELIMSIYSNGDKEDGRFTAQLNKASQYVSLLIRDSQPSDSATYLCAVNMRGGGSNYKLTFGKGTLLTVNP V domain 2: EPEVTQTPSHQVTQMGQEVILRCVPISNHLYFYWYRQILGQKVEFLVSFYNNEISEKSEIFDDQFSVERPDGSNFTLKIRSTKLEDSAMYFCAIASRVSYEQYFGPGTRLTVTE
result: 2.06%

Now turn to the next binder.
% cells in E7 tet+/CD8- quadrant for TCR 44 (codon optimized, cysteine modified version) (TCR, V domains shown) V domain 1: GQNIDQPTEMTATEGAIVQINCTYQTSGFNGLFWYQQHAGEAPTFLSYNVLDGLEEKGRFSSFLSRSKGYSYLLLKELQMKDSASYLCAQYSGGYQKVTFGTGTKLQVIP V domain 2: DSGVTQTPKHLITATGQRVTLRCSPRSGDLSVYWYQQSLDQGLQFLIQYYNGEERAKGNILERFSAQQFPDLHSELNLSSLELGDSALYFCASSGTPDTQYFGPGTRLTVLE ?
1.43%
